- Study System: TG2 (Homo sapiens (Human))
- Sequence (P21980 whole entry): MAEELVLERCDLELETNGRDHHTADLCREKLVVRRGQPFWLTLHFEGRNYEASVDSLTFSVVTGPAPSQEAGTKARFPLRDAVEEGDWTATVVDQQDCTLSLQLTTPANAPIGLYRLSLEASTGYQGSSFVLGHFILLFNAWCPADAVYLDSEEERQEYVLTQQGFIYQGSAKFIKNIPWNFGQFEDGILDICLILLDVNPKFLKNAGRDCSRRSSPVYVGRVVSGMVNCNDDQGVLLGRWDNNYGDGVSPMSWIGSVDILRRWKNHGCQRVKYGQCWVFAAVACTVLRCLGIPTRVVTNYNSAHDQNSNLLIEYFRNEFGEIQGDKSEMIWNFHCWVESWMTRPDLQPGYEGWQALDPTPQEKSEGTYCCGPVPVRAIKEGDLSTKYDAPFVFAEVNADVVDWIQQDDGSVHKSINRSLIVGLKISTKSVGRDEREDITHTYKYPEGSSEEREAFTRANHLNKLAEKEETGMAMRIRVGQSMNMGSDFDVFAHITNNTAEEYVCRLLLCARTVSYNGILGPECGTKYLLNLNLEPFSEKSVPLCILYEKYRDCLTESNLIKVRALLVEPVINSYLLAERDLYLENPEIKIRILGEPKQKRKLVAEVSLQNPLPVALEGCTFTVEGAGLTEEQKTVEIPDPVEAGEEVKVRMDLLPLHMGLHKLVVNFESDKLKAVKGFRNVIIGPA
- Protocol Summary: Inhibitory activity against TG2 (isopeptidase assay), Tables 3 and 4
- Type: biochemical
- Conditions Used: TG2 versus FXIII, isopeptidase assay, Table 3
*1 amine or outer side, *2 acyl side, *3 side chain or, on linkers, in order; H or OH if unused. Where a SMILES comes first, the peptide text is derived from it. [ ]: non-standard residue; d: D form. The star is where a group is joined. Isonicotinoyl(3-COOH) = O=C(O)c1cnccc1C(=O)*; X1 = COC(=O)/C=C/CC[C@H](N[*:1])C(=O)[*:2]; X5 = CNC(=O)/C=C/CC[C@H](N[*:1])C(=O)[*:2]; X8 = NC(=O)/C=C/CC[C@H](N[*:1])C(=O)[*:2]; Pro(4-oxo) = O=C1CN[C@H](C(=O)O)C1; Chg = N[C@H](C(=O)O)C1CCCCC1; Tle = CC(C)(C)[C@H](N)C(=O)O; X4 = O=C(O)c1cncc(C(=O)*)c1
Parameter: Selectivity
Provide a numeric answer; units are not to be included.

Some solved cases for reference:
Compound: CC(C)(C)[C@H](NC(=O)[C@H](CC/C=C/C(N)=O)NC(=O)c1ccncc1C(=O)O)C(=O)N1CC(=O)C[C@H]1C(=O)N[C@H](C(=O)N[C@H](C(N)=O)C1CCCCC1)C1CCCCC1 [15a/b] ({Isonicotinoyl(3-COOH)}-[X8][Tle][Pro(4-oxo)][Chg][Chg]-NH2)
Study System: TG2 (Homo sapiens (Human))
Value Reported: 7.0
//
Compound: CNC(=O)/C=C/CC[C@H](NC(=O)c1ccncc1C(=O)O)C(=O)N[C@H](C(=O)N1CC(=O)C[C@H]1C(=O)N[C@H](C(=O)N[C@H](C(N)=O)C1CCCCC1)C1CCCCC1)C(C)(C)C [17a/b] ({Isonicotinoyl(3-COOH)}-[X5][Tle][Pro(4-oxo)][Chg][Chg]-NH2)
Study System: TG2 (Homo sapiens (Human))
Value Reported: 7.2
//
Compound: COC(=O)/C=C/CC[C@H](NC(=O)c1ccncc1C(=O)O)C(=O)N[C@@H](CCSC)C(=O)N1CC(=O)C[C@H]1C(=O)N[C@H](C(=O)N[C@H](C(N)=O)C1CCCCC1)C1CCCCC1 [37a/b] ({Isonicotinoyl(3-COOH)}-[X1]M[Pro(4-oxo)][Chg][Chg]-NH2)
Study System: TG2 (Homo sapiens (Human))
Value Reported: 4.7

Now for a further compound.
Provide measured Selectivity value, entry: COC(=O)/C=C/CC[C@H](NC(=O)c1cncc(C(=O)O)c1)C(=O)N[C@H](C(=O)N1CCC[C@H]1C(=O)N[C@H](C(=O)N[C@H](C(N)=O)C1CCCCC1)C1CCCCC1)C(C)(C)C [Compound 27] (X4-[X1][Tle]P[Chg][Chg]-NH2)
2.4

====

Known recovery in plasma determined by HPLC of a selection of molecules
- Protocol Summary: Stability of compounds in plasma (HPLC)
- Conditions Used: plasma, 37° C., over a period of 2 hours
*1 amine or outer side, *2 acyl side, *3 side chain or, on linkers, in order; H or OH if unused. Where a SMILES comes first, the peptide text is derived from it. [ ]: non-standard residue; d: D form. The star is where a group is joined. Nle(5E-ene,6-CO2Et) = CCOC(=O)/C=C/CC[C@H](N)C(=O)O; Isonicotinoyl(3-COOH) = O=C(O)c1cnccc1C(=O)*; X1 = COC(=O)/C=C/CC[C@H](N[*:1])C(=O)[*:2]; X5 = CNC(=O)/C=C/CC[C@H](N[*:1])C(=O)[*:2]; X8 = NC(=O)/C=C/CC[C@H](N[*:1])C(=O)[*:2]; Pro(4-oxo) = O=C1CN[C@H](C(=O)O)C1; Chg = N[C@H](C(=O)O)C1CCCCC1; Tle = CC(C)(C)[C@H](N)C(=O)O

Give the value of recovery in plasma determined by HPLC reported for the following: CCOC(=O)/C=C/CC[C@H](NC(=O)c1ccncc1C(=O)O)C(=O)N[C@H](C(=O)N1CC(=O)C[C@H]1C(=O)N[C@H](C(=O)N[C@H](C(N)=O)C1CCCCC1)C1CCCCC1)C(C)(C)C [8a/b] ({Isonicotinoyl(3-COOH)}-[Nle(5E-ene,6-CO2Et)][Tle][Pro(4-oxo)][Chg][Chg]-NH2)
> 75%

Assign recovery in plasma determined by HPLC to the following record: COC(=O)/C=C/CC[C@H](NC(=O)c1ccncc1C(=O)O)C(=O)N[C@@H](CCSC)C(=O)N1CC(=O)C[C@H]1C(=O)N[C@H](C(=O)N[C@H](C(N)=O)C1CCCCC1)C1CCCCC1 [37a/b] ({Isonicotinoyl(3-COOH)}-[X1]M[Pro(4-oxo)][Chg][Chg]-NH2)
> 75%

// fetch recovery in plasma determined by HPLC given entry COC(=O)/C=C/CC[C@H](NC(=O)c1ccncc1C(=O)O)C(=O)N[C@H](C(=O)N1CC(=O)C[C@H]1C(=O)N[C@H](C(=O)N[C@H](C(=O)O)C1CCCCC1)C1CCCCC1)C(C)(C)C [34a/b] ({Isonicotinoyl(3-COOH)}-[X1][Tle][Pro(4-oxo)][Chg][Chg]-OH)
> 75%

Recall and state the measured recovery in plasma determined by HPLC for COC(=O)/C=C/CC[C@H](NC(=O)c1ccncc1C(=O)O)C(=O)N[C@H](C(=O)N1CC(=O)C[C@H]1C(=O)N[C@H](C(=O)N[C@H](C(=O)OC)C1CCCCC1)C1CCCCC1)C(C)(C)C [35a/b] ({Isonicotinoyl(3-COOH)}-[X1][Tle][Pro(4-oxo)][Chg][Chg]-OMe) .
> 75%

Tell me its recovery in plasma determined by HPLC given CNC(=O)/C=C/CC[C@H](NC(=O)c1ccncc1C(=O)O)C(=O)N[C@H](C(=O)N1CC(=O)C[C@H]1C(=O)N[C@H](C(=O)N[C@H](C(N)=O)C1CCCCC1)C1CCCCC1)C(C)(C)C [17a/b] ({Isonicotinoyl(3-COOH)}-[X5][Tle][Pro(4-oxo)][Chg][Chg]-NH2) as the entry.
> 75%

Supply reported recovery in plasma determined by HPLC belonging to this molecule: CC(C)(C)[C@H](NC(=O)[C@H](CC/C=C/C(N)=O)NC(=O)c1ccncc1C(=O)O)C(=O)N1CC(=O)C[C@H]1C(=O)N[C@H](C(=O)N[C@H](C(N)=O)C1CCCCC1)C1CCCCC1 [15a/b] ({Isonicotinoyl(3-COOH)}-[X8][Tle][Pro(4-oxo)][Chg][Chg]-NH2)
> 75%

Consider the molecule CNC(=O)[C@@H](NC(=O)[C@@H](NC(=O)[C@@H]1CC(=O)CN1C(=O)[C@@H](NC(=O)[C@H](CC/C=C/C(=O)OC)NC(=O)c1ccncc1C(=O)O)C(C)(C)C)C1CCCCC1)C1CCCCC1 [36a/b] ({Isonicotinoyl(3-COOH)}-[X1][Tle][Pro(4-oxo)][Chg][Chg]-NHMe) and give its recorded recovery in plasma determined by HPLC.
> 75%

The reported numbers originate from patent US11472838B2.
